So I've got a bunch of compounds here, and I need their half-life values.
# Experiment summary: Half life in rat liver microsomes
# Format: ADME

Sample records with half-life:
{"Compound string": "COc1cc(N2Cc3cn(-c4cccc(S(C)(=O)=O)c4)nc3[C@H]2C(C)(C)C)ccn1", "half-life": "> 1 h"}
{"Compound string": "Cc1nc(N2Cc3cn(-c4cccc(S(C)(=O)=O)c4)nc3[C@H]2C(C)C)cc(C(F)(F)F)n1", "half-life": "> 1 h"}
{"Compound string": "COc1cc(N2Cc3cn(-c4cccc(S(C)(=O)=O)c4)nc3[C@H]2C(C)C)ccn1", "half-life": "> 1 h"}

// each compound listed below needs its half-life
1. CC(C)[C@@H]1c2nn(-c3cccc(S(C)(=O)=O)c3)cc2CN1c1ccnc(C(F)(F)F)n1
2. COc1ncnc(N2Cc3cn(-c4cccc(S(C)(=O)=O)c4)nc3[C@H]2C(C)C)c1F

Output line:
> 1 h
> 1 h

Dear colleague, could you please provide half-life for the compounds listed below?
1. CC(C)[C@@H]1CN(c2ccc(CO)c(S(C)(=O)=O)c2)CCN1c1ncc(CO)c(C(F)(F)F)n1
2. CC(C)[C@@H]1c2nn(-c3cccc(S(C)(=O)=O)c3)cc2CN1c1nccc(C(F)(F)F)n1
3. CC(C)[C@@H]1c2nn(-c3cccc(S(C)(=O)=O)c3)cc2CN1c1ncc(CO)c(C(F)(F)F)n1
4. COc1nc(C)cc(N2Cc3cn(-c4cccc(S(C)(=O)=O)c4)nc3[C@H]2C(C)C)n1

Output line:
1. 1.15 h
2. > 1 h
3. 3.12 h
4. > 1 h

The following compounds each have a reported value; give each one's half-life.
1. CC(C)[C@@H]1c2nn(-c3ccc(CO)c(S(C)(=O)=O)c3)cc2CN1c1ncc(CO)c(C(F)(F)F)n1
2. CC(C)[C@@H]1c2nn(-c3cccc(S(C)(=O)=O)c3)cc2CN1c1cc(C(F)(F)F)ncn1
3. COc1ncc(F)c(N2Cc3cn(-c4cccc(S(C)(=O)=O)c4)nc3[C@H]2C(C)C)n1

Output line:
["> 1 h", "> 1 h", "> 1 h"]

###

Please go through the items and note down their half-life.
# Experiment summary: Half life in mouse liver microsomes
# Assay type: ADME

// each compound listed below needs its half-life
1. CC(C)[C@@H]1c2nn(-c3cccc(S(C)(=O)=O)c3)cc2CN1c1ccnc(C(F)(F)F)n1
2. COc1cc(N2Cc3cn(-c4cccc(S(C)(=O)=O)c4)nc3[C@H]2C(C)C)ccn1
3. CC(C)[C@@H]1c2nn(-c3cccc(S(C)(=O)=O)c3)cc2CN1c1cc(C(F)(F)F)ncn1
4. COc1cc(N2Cc3cn(-c4cccc(S(C)(=O)=O)c4)nc3[C@H]2C(C)(C)C)ccn1
5. Cc1nc(N2Cc3cn(-c4cccc(S(C)(=O)=O)c4)nc3[C@H]2C(C)C)cc(C(F)(F)F)n1

Output line:
1: > 1 h; 2: > 1 h; 3: 0.833 h; 4: 1.1 h; 5: > 1 h

Go through the items and report each one's half-life.
1. CC(C)[C@@H]1c2nn(-c3cccc(S(C)(=O)=O)c3)cc2CN1c1nccc(C(F)(F)F)n1
2. COc1cc(N2Cc3cn(-c4cccc(S(C)(=O)=O)c4)nc3[C@H]2C(C)C)cc(C)n1

Output line:
1. > 1 h
2. > 0.367 h

Input line: Return reported half-life; argument: COc1nc(C)cc(N2Cc3cn(-c4cccc(S(C)(=O)=O)c4)nc3[C@H]2C(C)C)n1
Output line: > 1 h
